- System: J-Lat 9.2 cells
- test: LRA-induced provirus expression
- Type: cell-based
- measurement-conditions: read-out: Prostratin EC50, inhibition of provirus expression; J-Lat 9.2, 10 μM prostratin, 24 h, GFP
measure-name: pEC50
Scale: pEC50 equals -log10([C]), with [C] in mol/L.

Form: compound = O=c1cc(-c2ccc(O)c(O)c2)oc2cc(O[C@@H]3O[C@H](CO)[C@@H](O)[C@H](O)[C@H]3O)cc(O)c12 [L7G, luteolin-7-glucoside] ; pEC50 = 4.76
